// provenance: a melting point compilation (Tetko et al.; mined from patent text by program, amines drawn as free bases though some values may be those of a salt)

The following compounds are shown together with reported melting point values.

compound: C=C(C)C(=O)c1cn2c(C)c(CC)c(SC)nc2n1
value observed: 136 to 137 °C
--
compound: CCNC(=O)n1nc(Oc2c(Cl)cc(C(F)(F)F)cc2Cl)cc1C(=O)OC
value observed: 88 to 90 °C
--
compound: CC(C)(SCC(=O)O)C(NS(=O)(=O)c1ccc(Oc2ccc(F)cc2)cc1)C(=O)O (centres undefined)
value observed: 69 °C

Moving on to the next compound.
Item O=S(=O)(c1ccc(F)c(C(F)(F)F)c1)N1CCC(Nc2nc(Nc3cccc(C(F)(F)F)c3)nc(OCC(F)(F)F)n2)CC1 : provide melting point
250 to 252 °C

----------
The following molecules are shown together with reported melting point values.

# count of solved cases: 4
smiles text: COc1cc2c(cc1OC)C(=O)C(=CC=Cc1ccc(N(C)C)cc1)C2
melting point: 210 to 213 °C
//
smiles text: O=C(O)c1ccccc1OCCN1CCC(c2cn(CCCC3OCCO3)c3ccccc23)CC1
melting point: 147 to 149 °C
//
smiles text: Cc1ccc(C(=O)Nc2ccccc2C(CCC(=O)O)=NO)cc1
melting point: 165 to 168 °C
//
smiles text: CN(C)c1nc2cc(NC(=O)c3c(C(=O)N4CC(F)C4)cnn3C)ccn2n1
melting point: 243 to 244 °C

Item CC(C)NC1=Nc2ccc(Cl)cc2S(=O)(=O)N1C : provide melting point
139 to 141 °C

----------
The following compounds are shown together with reported melting point values.

# count of solved cases: 5
compound: O=C1CC[C@H](COC(c2ccccc2)(c2ccccc2)c2ccccc2)N1CCCc1ccccc1
experimental readout: melting point
value observed: 109 °C
//
compound: Cc1ncoc1C(=O)Nc1ccc(-n2nc(C(F)(F)F)cc2C2CC2)c(F)c1
experimental readout: melting point
value observed: 148 to 150 °C
//
compound: CCOC=Nc1c(SC(F)(F)F)c(C#N)nn1-c1c(Cl)cc(C(F)(F)F)cc1Cl
experimental readout: melting point
value observed: 68 °C
//
compound: Cn1c(C(F)(F)F)cc(=O)n(-c2ccc([N+](=O)[O-])cc2F)c1=O
experimental readout: melting point
value observed: 135 to 136 °C
//
compound: CC(=O)N1CCc2cccc(Cl)c2CC1
experimental readout: melting point
value observed: 64 to 66 °C

Item COC(=O)c1sc(C)c(C#N)c1N(C(=O)OC(C)(C)C)C(=O)OC(C)(C)C : provide melting point
97 to 102 °C

Item CC(C)(C)OC(=O)NC(C(=O)NC1c2cc(C#N)ccc2OC(C)(C)C1O)c1ccccc1 (centres undefined) : provide melting point
112 to 130 °C

Item COc1ccc(C2COC(c3c(F)cccc3Cl)=N2)cc1-c1ccccc1 (centres undefined) : provide melting point
80.5 to 82 °C

Item CC(C)(C)OC(=O)NC(Cc1ccc(CO)cc1)c1cccnc1 (centres undefined) : provide melting point
130 °C

----------
experimental readout: melting point

compound: CC(C)(C)n1nc(Cc2ccncc2)c(C(N)=O)c1N
melting point: 125 to 127 °C
//
compound: COc1ccc(C=Cc2ccccc2)c(-c2ccc(-c3cc(OC)ccc3C=Cc3ccccc3)n2-c2ccc(C)cc2)c1
melting point: 303 to 305 °C
//
compound: NC(=O)c1cnccc1C(F)(F)F
melting point: 163 °C
//
compound: Cc1nnc(-c2cccc(-c3cnc4[nH]cc(C(=O)C5(C)CCCCC5)c4n3)c2)o1
melting point: 234 to 236 °C
//
compound: COC(=O)Cc1sc(S)nc1C
melting point: 139 to 140 °C

Item CC(=O)n1nc(C)c(Oc2cc(Cl)cc(Cl)c2)c1C : provide melting point
< 60 °C

Item CN(C)/C=C/C(=O)c1ccc(C(F)(F)F)cc1 : provide melting point
96.5 to 98 °C

Item COc1ccc2cccc3c2c1C(=O)N(O)C3=O : provide melting point
205 to 206 °C

Item CCN(SN(C)C=Nc1ccc(Cl)cc1C)c1ccccc1 : provide melting point
51.5 to 53 °C

Item O=C(CCC1c2ccccc2-c2ccccc21)Nc1ccc(C(=O)O)c(O)c1 : provide melting point
225 to 228 °C

Item CCC(C)(C)c1ccc(OCCCC(=O)Nc2ccc(Cl)c(NC(=O)CC(=O)C(C)(C)Sc3ccccc3)c2)c(C(C)(C)CC)c1 : provide melting point
144 to 145 °C

Item Clc1c(CN[C@H]2CC[C@@H](c3ccccc3)CC2)ccn2c(CC3CC3)nnc12 : provide melting point
171 °C

Item Fc1ccc(OCCCc2c[nH]cn2)cc1 : provide melting point
135 to 137 °C

Item c1ccc(N(c2ccc3c(c2)Oc2ccc(N(c4ccccc4)c4cccc5ccccc45)cc2O3)c2cccc3ccccc23)cc1 : provide melting point
315 °C

Item NC(=O)[C@@H]1[C@H](Nc2c(Br)cnc3[nH]c(-c4ccc(N5CCOCC5)nc4)nc23)[C@H]2C=C[C@@H]1C2 : provide melting point
288 to 290 °C

Item O=[N+]([O-])c1cc(S(=O)c2ccc(-c3ccc(Br)cc3)cc2)ccc1Cl (stereo unspecified) : provide melting point
173 to 175 °C

Item CC(C)OC1OC(=O)CC(C)(C)C1OS(C)(=O)=O (stereo unspecified) : provide melting point
75 °C

Item CN(C)c1ccc(S(=O)CCCCCC(=O)NO)cc1 (stereo unspecified) : provide melting point
95 to 97 °C

Item O=C(Nc1ccc(O)cc1)C(=O)Nc1ccc(O)cc1 : provide melting point
> 250 °C

Item CCOC(=O)C1(C)CCc2ccccc2O1 (stereo unspecified) : provide melting point
79 to 80 °C

Item Cn1ncc(C(=O)C2CC2)c1S(N)(=O)=O : provide melting point
125 to 127 °C

Item O=C(NC1CC1)c1ccc(-c2ccc(C(CC3CCOCC3)c3ccc(S(=O)(=O)C4CC4)cc3)[nH]2)nc1 (stereo unspecified) : provide melting point
134 to 136 °C

----------
The following compounds are shown together with reported melting point values.

compound: Cc1ccc2[nH]c(=O)c(-c3ccccc3)cc2c1
experimental readout: melting point
value observed: 212 to 213 °C
--
compound: O=C(O)C(c1ccccc1)n1c(=O)c(=O)[nH]c2ccccc21 (stereo not given)
experimental readout: melting point
value observed: 242 to 244 °C
--
compound: CCOC(=O)C1=C(C)NC(CCN(C)C)=C(C(=O)OCC)C1c1ccccc1/C=C/C(=O)OC(C)(C)C (stereo not given)
experimental readout: melting point
value observed: 150 to 151 °C
--
compound: CCOC(=O)c1cccc2nc(S)n(Cc3ccc(-c4ccccc4C#N)cc3)c12
experimental readout: melting point
value observed: 225 to 227 °C

Item CCOC(=O)C1=C(C)Nc2ccnc(OC(C)C)c2C1c1cccc(C(F)(F)F)c1Cl (stereo not given) : provide melting point
173 to 175 °C

Item Cc1ncsc1CCOc1ccc(NC(=O)c2cc(F)cc(N3CCCCC3)c2)c2ccccc12 : provide melting point
221 to 222 °C

Item CC(C)(C)OC(=O)NC1CCc2cc3ccccc3n2C1 (stereo not given) : provide melting point
137 to 139 °C

Item O=C1CN(c2cccc(OCc3ccc(F)cc3)c2)NC(=O)N1 : provide melting point
73 to 75 °C

Item O=C(NC1CCCN(Cc2ccccc2)C1)c1ccc2[nH]ncc2c1 (stereo not given) : provide melting point
203 to 204 °C

Item COC(=O)c1ccc(-c2cc[nH]n2)cc1Cl : provide melting point
130 to 131 °C

----------
The following compounds are shown together with reported melting point values.

# count of solved cases: 8
compound: CS(=O)(=O)Nc1cccc(Nc2nc(Oc3ccc(F)cc3)c3nc[nH]c3n2)c1
melting point: 136 to 139 °C
//
compound: O=c1ncc(Br)cn1CSc1ccc(F)cc1
melting point: 206 °C
//
compound: CC(C)(C)OC(=O)N1CC(O)C(N=[N+]=[N-])C1 (stereo not given)
melting point: 34 to 36 °C
//
compound: NC(=O)c1sc2nccc(N3CCCN(c4ccc(F)cc4)CC3)c2c1N
melting point: 203 to 205 °C
//
compound: Cc1c(C(=O)c2ccccc2)c(NC(=O)CNO)cn1C
melting point: 140 to 142 °C
//
compound: COC(=O)c1ncncc1OC
melting point: 75 °C
//
compound: CCc1nc2cc(C(=O)O)c(Cl)cc2n1-c1ccc(CCNC(=O)NS(=O)(=O)c2ccc(C)cc2)cc1
melting point: 145 to 150 °C
//
compound: COc1cc2ncnc(N3CCC(C(C)CN4CCCS4(=O)=O)C(O)C3)c2cc1OC (stereo not given)
melting point: 173 to 174 °C

Item O=C(Cc1ccccn1)c1ccccc1[NH+]([O-])C(=O)c1ccccc1 (stereo not given) : provide melting point
192 to 194 °C

Item NC(=O)c1cnn2c(-c3cccc(F)c3)ccnc12 : provide melting point
247 to 249 °C

----------
The following compounds are shown together with reported melting point values.

compound: Cc1nc(N2CCC(Cc3ccc(C(F)(F)F)cc3)C2=O)sc1C(=O)NCc1ccc(F)cc1 (stereo not given)
value observed: 175 to 176 °C

Item Cc1nc2cccc(OCC(C)(C)NC(=O)C3CCC3)c2c(N)c1C(=O)O : provide melting point
186 to 190 °C

Item CCC(C)(C)c1cc(-c2ccc(CC3SC(N4CCOCC4)=NC3=O)s2)ccc1O (stereo not given) : provide melting point
200 to 202 °C

Item Cc1cccc(COc2cccc(COc3ccc4ccccc4n3)c2)c1C(=O)O : provide melting point
68 to 72 °C

Item C#CCn1nc(-c2ccc(S(C)(=O)=O)cc2)c(-c2ccc(F)cc2)c1C(F)(F)F : provide melting point
158 to 160 °C
